target: caspase-10 (Homo sapiens, UniProt Q92851); experiment: Caspase inhibition, delayed-time fluorescence method (europium substrate Eu-W1284-CIETDK-QSy-7)
Sequence (Q92851 220-415 limits assumed): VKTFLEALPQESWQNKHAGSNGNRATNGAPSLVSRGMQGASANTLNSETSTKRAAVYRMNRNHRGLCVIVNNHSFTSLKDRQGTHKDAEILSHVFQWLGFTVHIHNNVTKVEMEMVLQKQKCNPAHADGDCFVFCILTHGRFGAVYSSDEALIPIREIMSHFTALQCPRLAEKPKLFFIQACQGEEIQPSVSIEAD
Sequence (Q92851 416-521 limits assumed): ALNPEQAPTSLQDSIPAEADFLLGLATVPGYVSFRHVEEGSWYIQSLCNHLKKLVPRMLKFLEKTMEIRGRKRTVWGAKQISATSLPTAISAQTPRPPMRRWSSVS
pIC50: −log10 of the molar value.
Listing of entries alongside the reported pIC50.

COMPOUND	ASSAY SYSTEM	pIC50
COc1ccc(-c2ccc(Cl)cc2CC(=O)O)cc1 [Example 16]	caspase-10 (Homo sapiens, UniProt Q92851)	5.05
O=C(O)Cc1cc(Cl)ccc1-c1ccc(C(F)(F)F)cc1 [Example 15]	caspase-10 (Homo sapiens, UniProt Q92851)	4.63
Cc1ccc(-c2ccc(Cl)cc2CC(=O)O)cc1 [Example 12]	caspase-10 (Homo sapiens, UniProt Q92851)	4.88
O=C(O)Cc1cc(Cl)ccc1-c1ccc(Cl)cc1 [Example 14, (4,4′-dichlorobiphenyl-2-yl)acetic acid]	caspase-10 (Homo sapiens, UniProt Q92851)	5.00
